Values compiled from the supplement of paper PMC10065799.

# System: Fer (mouse);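 further: 11-residue human phosphosite peptides and single-mutation variants displayed on the E. coli surface, counted by deep sequencing, each peptide's frequency after selection divided by its frequency in the unselected input library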;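 further: frequency after pTyr selection over input frequency; kinase dosed for 20-30% of maximal phosphorylation in three min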
# experiment-notes: phosphorylation enrichment, bacterial display (enrichment ratio); higher = better substrate or ligand; peptides without Tyr show the background
# maps each entry to its phosphorylation enrichment
reported-endpoint: phosphorylation enrichment

EFTAGYNVKFD [GPX4_Y123_A120T]; 0.495
SGGLDYGMVGG [TNRC6B_Y1382_M1380L]; 0.476
LNYNEYFRDLN [HPRT1_Y198_D194N]; 0.878
EVEPRYVVLYD [ERCC4_Y577]; 0.547
VHNLDYYKMTT [FGFR3_Y647_K650M]; 0.522
LLVVVYKYRCY [PSEN1_Y154_L153V]; 1.25
RLGNQHVNVMN [SLC3A1_Y461_Y461H]; 0.504
AVISVYDLVAF [PSEN1_Y256_V261F]; 16
LDLSFYPTSSS [EMD_Y182_YF]; 0.799
DKPENYRRLDI [VHL_Y175_V170D]; 0.452
PRLLRYLQLDF [ASB10_Y457]; 0.662
VDEVLYEDSST [MTHFS_Y197]; 2.56
IYRASYYRRGD [LTK_Y676]; 0.453
SQSPHYFRSGR [GPATCH8_Y1038]; 0.427
